biological target: VAP-1/SSAO (Homo sapiens (Human), UniProt Q16853); assay: Human VAP-1 enzyme activity assay (Amplex Red Monoamine Oxidase kit); assay type: biochemical; conditions: 10 nM VAP-1 enzyme, 30 min preincubation, benzylamine substrate; read-out: Human Recombinant VAP-1/SSAO Enzyme Inhibitory Activity IC50
Sequence (Q16853 whole entry): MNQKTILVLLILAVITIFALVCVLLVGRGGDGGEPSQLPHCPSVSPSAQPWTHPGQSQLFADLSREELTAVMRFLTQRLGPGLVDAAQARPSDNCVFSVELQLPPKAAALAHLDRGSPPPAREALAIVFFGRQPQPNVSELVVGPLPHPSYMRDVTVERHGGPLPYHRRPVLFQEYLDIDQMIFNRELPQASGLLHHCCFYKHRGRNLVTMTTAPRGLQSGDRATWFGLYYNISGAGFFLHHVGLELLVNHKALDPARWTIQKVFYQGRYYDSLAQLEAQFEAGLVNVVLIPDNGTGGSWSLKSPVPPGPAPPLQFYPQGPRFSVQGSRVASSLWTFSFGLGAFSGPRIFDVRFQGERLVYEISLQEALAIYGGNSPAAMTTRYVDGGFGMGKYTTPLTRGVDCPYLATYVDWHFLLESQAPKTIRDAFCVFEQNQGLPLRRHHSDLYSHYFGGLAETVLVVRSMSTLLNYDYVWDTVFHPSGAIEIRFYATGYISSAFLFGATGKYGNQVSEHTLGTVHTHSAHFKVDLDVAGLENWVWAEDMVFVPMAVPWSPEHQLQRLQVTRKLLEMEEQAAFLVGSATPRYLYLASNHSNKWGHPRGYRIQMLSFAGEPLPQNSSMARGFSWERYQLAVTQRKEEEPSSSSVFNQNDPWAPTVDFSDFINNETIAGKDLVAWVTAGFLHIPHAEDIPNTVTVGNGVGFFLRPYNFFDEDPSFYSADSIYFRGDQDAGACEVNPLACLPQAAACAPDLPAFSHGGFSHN
resultType: IC50 (nM)

Use the examples below as a reference point.
compound	measurementTarget	IC50 / nM
CCCc1n[nH]c(-c2ccc(OC/C(=C/F)CN)cc2)n1	VAP-1/SSAO (Homo sapiens (Human), UniProt Q16853)	0.5
Cn1nc(-c2ccc(OC/C(=C/F)CN)cc2)nc1CC(F)(F)F	VAP-1/SSAO (Homo sapiens (Human), UniProt Q16853)	0.5
NC/C(=C\F)COc1ccc(-c2nnn(C3CC3)n2)cc1	VAP-1/SSAO (Homo sapiens (Human), UniProt Q16853)	0.3
Cn1nc(C2(F)CC2)nc1-c1ccc(OC/C(=C/F)CN)cc1	VAP-1/SSAO (Homo sapiens (Human), UniProt Q16853)	0.7
CC(C)(C)c1n[nH]c(-c2ccc(OC/C(=C/F)CN)cc2)n1	VAP-1/SSAO (Homo sapiens (Human), UniProt Q16853)	2.3
CC(C)n1nc(-c2ccc(OC/C(=C/F)CN)cc2)nc1C(F)F	VAP-1/SSAO (Homo sapiens (Human), UniProt Q16853)	1.4

[1] NC/C(=C\F)COc1ccc(-c2ncccn2)cc1
[2] NC/C(=C\F)COc1ccc(N2C(=O)C(=O)c3ccccc32)cc1
Problem: Higher IC50: 1 or 2 ? Answer by stating the label of the chosen item.
Solution: 2
(2: 1.3 nM, 1: 0.3 nM)

[1] CCn1nc(-c2ccc(OC/C(=C/F)CN)cc2)nc1C1CC1
[2] NC/C(=C\F)COc1ccc(-c2nc(NC3CC3)no2)cc1
[3] NC/C(=C\F)COc1ccc(-c2nc(N3CCOCC3)cs2)cc1
[4] CC(C)n1nc(-c2ccc(OC/C(=C/F)CN)cc2)nc1N1CCOCC1
[5] COc1ccc(Cn2nc(-c3ccc(OC/C(=C/F)CN)cc3)nc2NC2CC2)cc1
Problem: Order these by IC50, descending, and give the full ranking. Write the labels in rank order as requested.
Solution: 3, 5, 4, 1, 2

[A] Cc1nc(-c2ccc(OC/C(=C/F)CN)cc2)sc1N1CCOCC1
[B] NC/C(=C\F)COc1ccc(-c2nc(N3CCOCC3)n[nH]2)c(F)c1
Problem: Which entry shows the lesser value of IC50 here, A or B ? Answer by stating the label of the chosen item.
Solution: A
(A: 0.4 nM, B: 1.1 nM)

[P] CC(C)(C)c1nc(-c2ccc(OC/C(=C/F)CN)cc2)no1
[Q] NC/C(=C\F)COc1cc(F)c(-c2nc(N3CCOCC3)n[nH]2)c(F)c1
Problem: Higher IC50: P or Q ? Answer by stating the label of the chosen item.
Solution: Q
